system name: T1, GFP-9S library array, motif 4 ND N98P;D124F (synthetic construct, N98P;D124F)
T1 chain: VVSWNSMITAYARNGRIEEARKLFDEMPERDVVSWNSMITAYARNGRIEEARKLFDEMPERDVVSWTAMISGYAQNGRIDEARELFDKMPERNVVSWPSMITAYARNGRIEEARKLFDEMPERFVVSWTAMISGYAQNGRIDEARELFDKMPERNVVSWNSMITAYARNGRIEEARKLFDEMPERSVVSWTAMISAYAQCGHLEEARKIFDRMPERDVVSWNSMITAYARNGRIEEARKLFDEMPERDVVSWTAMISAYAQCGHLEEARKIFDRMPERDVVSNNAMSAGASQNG
test description: high-throughput RNA pulldown from lysate on Ni-NTA beads; HRP: 50 mM Tris pH 8, 150 mM NaCl, 1 mM beta-mercaptoethanol, 50 ug/ml BSA, 3 ug/ml yeast RNA, 0.5% heparin; ITC and FP: Tris pH 8, 200 mM KCl, 5% glycerol; MST: 50 mM Tris pH 8, 200 mM NaCl, 1 mM DTT, BSA, heparin, 0.05% Tween 20
conditions: tags: N-terminal His-eGFP; label: 5' Cy5
property: Kd (nM)
Numbers only; they are read as nM.

Q) Fill in Kd for record AUUACACGUGA (ssRNA) [Cy5-rpoA]
A) 134

Q) Fill in Kd for record AUUAGACGUGA (ssRNA) [Cy5-rpoA-G]
A) 125

These measurements were taken from paper PMC8809517.
